System: Bronchial Epithelial Cells (BECs)
assay remarks: Gene editing rates (HDR/NHEJ, TIDE assay) in BECs after electroporation
Assay type: cell-based, human
test parameters: Homo sapiens, Epithelial cell, NAV1.7 sgRNA, NAV1.7 Non-PAM ssODN, 72 hs after electroporation
attribute measured: IC50 (µM)
Quick reminder: number only, in µM, skip the unit.

**Query** Looking for the measured IC50 of Cc1ccnc(N[C@H]2CC[C@@H](Oc3cc(N4CCOCC4)cc4nonc34)CC2)n1 [Compound 665] , can you help?
**Result** 0.416

* * *

System: mPB CD34+ cells
assay remarks: Gene editing rates (HDR/NHEJ, TIDE assay) in CD34+ cells after electroporation
Assay type: cell-based, human
test parameters: Homo sapiens, CD34+ Donor A; NaV1.7; read-out: HDR EC50
attribute measured: EC50 (nM)
Quick reminder: number only, in nM, skip the unit.

**Query** Record lookup: for mPB CD34+ cells, what EC50 belongs to Cc1ccnc(N[C@H]2CC[C@@H](Oc3cc(N4CCOCC4)cc4nonc34)CC2)n1 [Compound 665] ?
**Result** 290

* * *

List of pKi tested on DNA-PK (Homo sapiens).
pKi: −log10 of the molar value.

**Query** Looking for the measured pKi of CC(C)NC(=O)c1cnc(N[C@H]2CC[C@@H](Oc3cc(N4CCOCC4)cc4nccnc34)CC2)nc1 , can you help?
**Result** > 7.00

**Query** Looking for the measured pKi of Cc1nc(N[C@H]2CC[C@@H](Oc3cc(N4CCOCC4)cc4nccnc34)CC2)ccc1C#N , can you help?
**Result** > 7.00

**Query** Looking for the measured pKi of Fc1nccc(N[C@H]2CC[C@@H](Oc3cc(N4CCOCC4)cc4nccnc34)CC2)n1 , can you help?
**Result** > 7.00

**Query** Looking for the measured pKi of Clc1cc(N[C@H]2CC[C@@H](Oc3cc(N4CCOCC4)cc4nccnc34)CC2)ncn1 , can you help?
**Result** > 7.00

**Query** Looking for the measured pKi of O=C(O)c1ccnc(N[C@H]2CC[C@@H](Oc3cc(N4CCOCC4)cc4nccnc34)CC2)n1 , can you help?
**Result** > 7.00

**Query** Looking for the measured pKi of Cc1cnc2cc(N3CCOCC3)cc(O[C@H]3CC[C@@H](Nc4ncccn4)CC3)c2n1 , can you help?
**Result** > 7.00

**Query** Looking for the measured pKi of C[C@H](CO)Nc1ncnc(N[C@H]2CC[C@@H](Oc3cc(N4CCOCC4)cc4nccnc34)CC2)c1F , can you help?
**Result** > 7.00

**Query** Looking for the measured pKi of CCCCc1cnc2cc(N3CCOCC3)cc(O[C@H]3CC[C@@H](Nc4ncccn4)CC3)c2n1 , can you help?
**Result** > 7.00

**Query** Looking for the measured pKi of FC(F)(F)c1ccc(N[C@H]2CC[C@@H](Oc3cc(N4CCOCC4)cc4nccnc34)CC2)nc1 , can you help?
**Result** > 7.00

**Query** Looking for the measured pKi of CCc1cnc(N[C@H]2CC[C@@H](Oc3cc(N4CCOCC4)cc4nccnc34)CC2)nc1 , can you help?
**Result** > 7.00

* * *

System: mPB CD34+ cells
assay remarks: Gene editing rates (HDR/NHEJ, TIDE assay) in CD34+ cells after electroporation
Type: cell-based, human
test parameters: Homo sapiens, CD34+ Donor B; NAV1.7; read-out: EC50 of Indel formation
attribute measured: pEC50
// field semantics: pEC50 = negative decimal log of concentration (mol/L)

**Query** Looking for the measured pEC50 of Cc1ccnc(N[C@H]2CC[C@@H](Oc3cc(N4CCOCC4)cc4nonc34)CC2)n1 [Compound 665] , can you help?
**Result** 6.44
